- EXPERIMENT SUMMARY: self-splicing fitness, log relative to wild type (ln ratio); higher = more splicing; Tetrahymena group I intron in knt gene, E. coli kanamycin selection, DiMSum; sequences stand for … in CUCUCU…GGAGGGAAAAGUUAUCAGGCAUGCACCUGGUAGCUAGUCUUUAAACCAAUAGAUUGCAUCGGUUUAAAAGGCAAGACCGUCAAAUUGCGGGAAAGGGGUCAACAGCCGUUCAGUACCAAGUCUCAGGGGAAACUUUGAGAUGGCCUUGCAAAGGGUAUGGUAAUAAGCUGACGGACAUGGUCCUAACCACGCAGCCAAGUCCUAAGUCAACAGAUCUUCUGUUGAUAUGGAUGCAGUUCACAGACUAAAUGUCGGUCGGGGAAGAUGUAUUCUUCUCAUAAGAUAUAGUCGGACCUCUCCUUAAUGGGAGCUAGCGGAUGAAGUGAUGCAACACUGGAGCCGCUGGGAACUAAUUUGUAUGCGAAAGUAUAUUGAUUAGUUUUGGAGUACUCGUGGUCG;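 also: selection with 25 µg/mL kanamycin versus none on LB agar overnight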
- CONDITION DETAILS: 37 °C
OBSERVED PROPERTY: self-splicing fitness (ln)
Give bare numbers.

Consider the following items and state reported self-splicing fitness (ln) for each.
1. GGGCAGCAAUAUUACGCCUU
2. UAUCAGCAAUAUUACGGCAA
3. CAACAGCAAUAUUACGCUCG
4. UUUAAGCAAUAUUACGCCAU

-2.13
0.808
-0.727
-2.36

Consider the following items and state reported self-splicing fitness (ln) for each.
1. UUGAAGCAAUAUUACGAGAC
2. GACUAGCAAUAUUACGAGGC
3. GGAAAGCAAUAUUACGUCUU
4. CGAAAGCAAUAUUACGGCUA

1. -2.5
2. -2.23
3. -0.112
4. -1.6

====

- EXPERIMENT SUMMARY: self-splicing fitness, log relative to wild type (ln ratio); higher = more splicing; Tetrahymena group I intron in knt gene, E. coli kanamycin selection, DiMSum; sequences stand for … in CUCUCU…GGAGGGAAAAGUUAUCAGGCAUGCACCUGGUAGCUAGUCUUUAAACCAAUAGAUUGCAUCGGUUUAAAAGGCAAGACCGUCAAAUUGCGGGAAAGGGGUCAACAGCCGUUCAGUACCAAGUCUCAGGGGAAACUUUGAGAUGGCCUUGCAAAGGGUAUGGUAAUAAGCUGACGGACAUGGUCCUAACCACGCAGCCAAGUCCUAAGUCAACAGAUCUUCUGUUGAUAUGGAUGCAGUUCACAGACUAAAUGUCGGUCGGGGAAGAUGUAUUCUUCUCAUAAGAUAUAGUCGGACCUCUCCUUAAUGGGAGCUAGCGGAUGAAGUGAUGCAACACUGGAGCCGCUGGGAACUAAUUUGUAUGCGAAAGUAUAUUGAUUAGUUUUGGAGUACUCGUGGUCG
- CONDITION DETAILS: 37 °C
Class yes: self-splicing fitness (ln) at least -1. Class no: self-splicing fitness (ln) below -1.

# example entries with known answers
| SEQUENCE TEXT | CAT |
| --- | --- |
| ACACAGCAAUAUUACGUUCC | no |
| CCCAAGCAAUAUUACGUAAA | no |
| UAAUAGCAAUAUUACGGAUC | no |
| UUGUAGCAAUAUUACGUGCA | no |
| CUUAAGCAAUAUUACGAGCG | yes |

Confirm if self-splicing fitness (ln) reported for the sequence "AAUCAGCAAUAUUACGGGGC" is -1 or above.
no

Confirm if self-splicing fitness (ln) reported for the sequence "UGGCAGCAAUAUUACGCCAA" is -1 or above.
yes

Confirm if self-splicing fitness (ln) reported for the sequence "UCAAAGCAAUAUUACGAAUU" is -1 or above.
no

Confirm if self-splicing fitness (ln) reported for the sequence "GUAAAGCAAUAUUACGUGUU" is -1 or above.
yes

Confirm if self-splicing fitness (ln) reported for the sequence "GUCCAGCAAUAUUACGAUUC" is -1 or above.
yes

Confirm if self-splicing fitness (ln) reported for the sequence "GAAUAGCAAUAUUACGCCGA" is -1 or above.
yes

Confirm if self-splicing fitness (ln) reported for the sequence "UUGGAGCAAUAUUACGGUUU" is -1 or above.
no

Confirm if self-splicing fitness (ln) reported for the sequence "UCCAAGCAAUAUUACGCAGC" is -1 or above.
no
